# Plat annotations
species: Rattus norvegicus; experiment: Open TG-GATES - Regimen: Single; assay type: toxicity, organism-based, Sprague-Dawley; design: regimen Single, gender Male, age 6 weeks; conditions: in vivo, po, 1000 mg/kg, 24 h, tissue Blood, route gavage, dose level High
Kindly format the answer as number then unit.

Answered examples (4):
CNC(=C[N+](=O)[O-])NCCSCc1ccc(CN(C)C)o1 : 122.4 x10_4/uL
CN/C(=N/CCSCc1nc[nH]c1C)NC#N : 122.4 x10_4/uL
O=C(OC[C@H]1O[C@@H](OC(=O)c2cc(O)c(O)c(OC(=O)c3cc(O)c(O)c(O)c3)c2)[C@H](OC(=O)c2cc(O)c(O)c(OC(=O)c3cc(O)c(O)c(O)c3)c2)[C@@H](OC(=O)c2cc(O)c(O)c(OC(=O)c3cc(O)c(O)c(O)c3)c2)[C@@H]1OC(=O)c1cc(O)c(O)c(OC(=O)c2cc(O)c(O)c(O)c2)c1)c1cc(O)c(O)c(OC(=O)c2cc(O)c(O)c(O)c2)c1 : 104.8 x10_4/uL
Cc1nnc2n1-c1ccc(Cl)cc1C(c1ccccc1Cl)=NC2 : 128.9 x10_4/uL

Now look at this one.
[Q] Can you look up the measured Plat of `COC(=O)C1=C(C)NC(C)=C(C(=O)OC)C1c1ccccc1[N+](=O)[O-]` for me?
[A] 142.3 x10_4/uL

* * *

species: Rattus norvegicus; experiment: Open TG-GATES - Regimen: Daily Repeat; type: toxicity, organism-based, Sprague-Dawley; parameters: regimen Daily Repeat, gender Male, age 6 weeks; settings: in vivo, po, 300 mg/kg, 72 h, tissue Blood, route gavage, dose level Middle, time 3 day
Measurement Label: PT (s)
State just the number; it will be interpreted in s.

O=C(OC[C@H]1O[C@@H](OC(=O)c2cc(O)c(O)c(OC(=O)c3cc(O)c(O)c(O)c3)c2)[C@H](OC(=O)c2cc(O)c(O)c(OC(=O)c3cc(O)c(O)c(O)c3)c2)[C@@H](OC(=O)c2cc(O)c(O)c(OC(=O)c3cc(O)c(O)c(O)c3)c2)[C@@H]1OC(=O)c1cc(O)c(O)c(OC(=O)c2cc(O)c(O)c(O)c2)c1)c1cc(O)c(O)c(OC(=O)c2cc(O)c(O)c(O)c2)c1 : 11.5

Now consider the entry below.
[Q] Which PT is reported for this compound? `CCOc1ccc(NC(C)=O)cc1`
[A] 13.4

* * *

species on record: Rattus norvegicus; test: Open TG-GATES - Regimen: Single; format: toxicity, organism-based, Sprague-Dawley; design: regimen Single, gender Male, age 6 weeks; settings: in vivo, po, 0 mg/kg, 24 h, tissue Plasma, route gavage, dose level Control
Recorded GLC for the following molecules
API: value field is a number in mg/dL; no unit string.

COC(=O)C1=C(C)NC(C)=C(C(=O)OC)C1c1ccccc1[N+](=O)[O-] [NIFEDIPINE] : 187
CCOc1ccc(NC(C)=O)cc1 [PHENACETIN] : 179
CN1C(=O)CCS(=O)(=O)C1c1ccc(Cl)cc1 (centres undefined) [CHLORMEZANONE] : 193.4
NC1=NC(=O)C(c2ccccc2)O1 (centres undefined) [PEMOLINE] : 174.6
Nc1c2c(nc3ccccc13)CCCC2 [TACRINE] : 191.6
CC(C)NNC(=O)c1ccncc1 [IPRONIAZID] : 179.6

[Q] Can you share its GLC? I mean this molecule: CCCc1cc(=O)[nH]c(=S)[nH]1 [PROPYLTHIOURACIL]
[A] 196.6

[Q] Also CN(C)CCC(c1ccc(Cl)cc1)c1ccccn1 (centres undefined) [CHLORPHENIRAMINE] ?
[A] 190.6
